Reference source for all entries: patent US5399577A

# TARGET SYSTEM: 5-Lipoxygenase (Cavia porcellus)
# Construct: the polymorphonuclear leucocytes were collected and the cytosol fraction was obtained as an enzyme source; endogenous in cells
# Sequence (A0A286X958 1-674): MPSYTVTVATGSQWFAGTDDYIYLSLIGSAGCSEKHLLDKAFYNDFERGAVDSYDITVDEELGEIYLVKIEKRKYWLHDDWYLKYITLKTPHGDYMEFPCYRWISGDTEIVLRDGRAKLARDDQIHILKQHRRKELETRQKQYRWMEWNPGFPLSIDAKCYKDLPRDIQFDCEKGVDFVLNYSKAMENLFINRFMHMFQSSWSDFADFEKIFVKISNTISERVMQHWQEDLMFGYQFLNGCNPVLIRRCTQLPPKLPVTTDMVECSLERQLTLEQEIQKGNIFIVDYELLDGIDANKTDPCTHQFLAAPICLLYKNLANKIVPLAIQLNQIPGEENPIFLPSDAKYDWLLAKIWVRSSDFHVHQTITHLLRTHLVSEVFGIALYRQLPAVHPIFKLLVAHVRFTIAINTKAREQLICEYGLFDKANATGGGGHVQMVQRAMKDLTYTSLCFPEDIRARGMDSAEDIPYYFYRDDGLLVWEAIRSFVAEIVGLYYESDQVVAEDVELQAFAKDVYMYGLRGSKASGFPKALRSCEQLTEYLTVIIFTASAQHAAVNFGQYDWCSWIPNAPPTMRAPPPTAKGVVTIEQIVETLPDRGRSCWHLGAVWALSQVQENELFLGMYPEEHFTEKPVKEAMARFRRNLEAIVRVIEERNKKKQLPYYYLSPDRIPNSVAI
# ASSAY TEXT: 5-Lipoxygenase inhibiting activity
# TEST PARAMETERS: cytosol fraction of guinea pig polymorphonuclear leucocytes, 14C-arachidonic acid, 5-hydroxyeicosatetraenoic acid formation
Output yes (1) for records whose IC50 is lower than 100 nM, no (0) for records at or above 100 nM.

{"MOLECULE": "COc1ccc(-c2noc(CNC(=O)/C=C/C=C/c3ccc(O)c(OC)c3)c2-c2ccc(OC)cc2)cc1 [Compound 15]", "TARGET SYSTEM": "5-Lipoxygenase (Cavia porcellus)", "ASSIGNED LABEL": "no (0)"}
{"MOLECULE": "COc1ccc(-c2noc(CCNC(=O)/C=C/c3ccc(O)c(O)c3)c2-c2ccc(OC)cc2)cc1 [Compound 5]", "TARGET SYSTEM": "5-Lipoxygenase (Cavia porcellus)", "ASSIGNED LABEL": "no (0)"}
{"MOLECULE": "COc1ccc(-c2noc(CCOC(=O)/C=C/c3ccc(O)c(O)c3)c2-c2ccc(OC)cc2)cc1 [Compound 4]", "TARGET SYSTEM": "5-Lipoxygenase (Cavia porcellus)", "ASSIGNED LABEL": "yes (1)"}
{"MOLECULE": "Cc1ccc(-c2noc(CCNC(=O)/C=C/c3ccc(O)c(O)c3)c2-c2ccc(C)cc2)cc1 [Compound 7]", "TARGET SYSTEM": "5-Lipoxygenase (Cavia porcellus)", "ASSIGNED LABEL": "no (0)"}
{"MOLECULE": "COc1ccc(-c2noc(CCNC(=O)/C=C/c3cc(OC)c(O)c(OC)c3)c2-c2ccc(OC)cc2)cc1 [Compound 10]", "TARGET SYSTEM": "5-Lipoxygenase (Cavia porcellus)", "ASSIGNED LABEL": "no (0)"}
{"MOLECULE": "COc1ccc(-c2noc(CCNC(=O)/C=C/C=C/c3cc(OC)c(O)c(OC)c3)c2-c2ccc(OC)cc2)cc1 [Compound 13]", "TARGET SYSTEM": "5-Lipoxygenase (Cavia porcellus)", "ASSIGNED LABEL": "yes (1)"}
{"MOLECULE": "COc1ccc(-c2noc(CCNC(=O)/C=C/C=C/c3c(OC)cc(O)cc3OC)c2-c2ccc(OC)cc2)cc1 [Compound 14]", "TARGET SYSTEM": "5-Lipoxygenase (Cavia porcellus)", "ASSIGNED LABEL": "no (0)"}
{"MOLECULE": "COc1ccc(-c2noc(CNC(=O)/C=C/C=C/c3cc(OC)c(O)c(OC)c3)c2-c2ccc(OC)cc2)cc1 [Compound 16]", "TARGET SYSTEM": "5-Lipoxygenase (Cavia porcellus)", "ASSIGNED LABEL": "no (0)"}
{"MOLECULE": "COc1ccc(-c2noc(CCCC(=O)/C=C/c3cc(OC)c(O)c(OC)c3)c2-c2ccc(OC)cc2)cc1 [Compound 39]", "TARGET SYSTEM": "5-Lipoxygenase (Cavia porcellus)", "ASSIGNED LABEL": "no (0)"}
{"MOLECULE": "COc1ccc(-c2c(-c3ccc(Cl)cc3)noc2CCNC(=O)/C=C/c2ccc(O)c(O)c2)cc1 [Compound 8]", "TARGET SYSTEM": "5-Lipoxygenase (Cavia porcellus)", "ASSIGNED LABEL": "yes (1)"}
{"MOLECULE": "COc1ccc(-c2noc(CCNC(=O)/C=C/C=C/c3ccc(O)c(OC)c3)c2-c2ccc(OC)cc2)cc1 [Compound 12]", "TARGET SYSTEM": "5-Lipoxygenase (Cavia porcellus)", "ASSIGNED LABEL": "no (0)"}
